Test: Cmax in BALB/c mouse at 1 mg/kg, iv measured during 0.083 to 24 hrs post dose by LC-MS/MS analysis
Assay type: ADME, organism-based
Parameters: route intravenous, time upper 24 hrs, dose 1 mg/kg, time lower 0.083 hrs
Conditions: in vivo
assay.endpoint: Cmax (ng/mL)
Use ng/mL as the unit, but write only the number.

Ask: Dear colleague, I am looking for the recorded Cmax of the following molecule: CC(C)(CO)NC(=O)c1cc(C(C)(C)C)n(-c2ccc(C(F)(F)F)cn2)n1
Result: 959

====

Assay: AUC (0 to infinity) in BALB/c mouse at 5 mg/kg, po measured during 0.083 to 24 hrs post dose by LC-MS/MS analysis
Assay type: ADME, organism-based
Design: route oral, dose 5 mg/kg, time 0.083-24 hrs
Details: in vivo
assay.endpoint: AUC(0-inf) (ng·h/mL)
Use ng·h/mL as the unit, but write only the number.

Ask: Dear colleague, I am looking for the recorded AUC(0-inf) of the following compound: CC(C)(CO)NC(=O)c1cc(C(C)(C)C)n(-c2ccc(C(F)(F)F)cn2)n1
Result: 1670

====

Molecular target: Cannabinoid receptor 1 (Homo sapiens, UniProt P21554)
Sequence (P21554 whole entry): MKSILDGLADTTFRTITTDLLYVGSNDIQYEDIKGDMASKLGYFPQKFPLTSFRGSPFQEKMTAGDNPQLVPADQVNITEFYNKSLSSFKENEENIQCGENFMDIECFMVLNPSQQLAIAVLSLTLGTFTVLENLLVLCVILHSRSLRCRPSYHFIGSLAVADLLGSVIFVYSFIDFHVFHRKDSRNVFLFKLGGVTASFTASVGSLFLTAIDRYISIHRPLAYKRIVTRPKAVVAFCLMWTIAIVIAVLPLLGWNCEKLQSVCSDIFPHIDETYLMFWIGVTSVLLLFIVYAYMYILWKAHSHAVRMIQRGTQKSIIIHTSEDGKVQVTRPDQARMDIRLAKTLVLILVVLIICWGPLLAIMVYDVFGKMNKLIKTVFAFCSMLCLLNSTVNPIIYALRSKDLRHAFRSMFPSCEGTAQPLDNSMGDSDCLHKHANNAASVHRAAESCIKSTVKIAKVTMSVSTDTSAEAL
Experiment: Agonist activity at human CB1 receptor expressed in HEK293 cells after 24 hrs by luciferase reporter gene assay based Tango beta-arrestin recruitment method
Assay type: cell-based
assay.endpoint: EC50

Ask: Dear colleague, I am looking for the recorded EC50 of the following compound: CC(C)(CO)NC(=O)c1cc(C(C)(C)C)n(-c2ccc(C(F)(F)F)cn2)n1
Result: > 10 µM

====

Experiment: Half life in BALB/c mouse at 1 mg/kg, iv measured during 0.083 to 24 hrs post dose by LC-MS/MS analysis
Assay type: ADME, organism-based
Conditions: in vivo, time 0.083-24 hrs
assay.endpoint: half-life

Ask: Dear colleague, I am looking for the recorded half-life of the following molecule: CC(C)(CO)NC(=O)c1cc(C(C)(C)C)n(-c2ccc(C(F)(F)F)cn2)n1
Result: 1.32 h

====

Target: UniProtKB P34972
Sequence (P34972 whole entry): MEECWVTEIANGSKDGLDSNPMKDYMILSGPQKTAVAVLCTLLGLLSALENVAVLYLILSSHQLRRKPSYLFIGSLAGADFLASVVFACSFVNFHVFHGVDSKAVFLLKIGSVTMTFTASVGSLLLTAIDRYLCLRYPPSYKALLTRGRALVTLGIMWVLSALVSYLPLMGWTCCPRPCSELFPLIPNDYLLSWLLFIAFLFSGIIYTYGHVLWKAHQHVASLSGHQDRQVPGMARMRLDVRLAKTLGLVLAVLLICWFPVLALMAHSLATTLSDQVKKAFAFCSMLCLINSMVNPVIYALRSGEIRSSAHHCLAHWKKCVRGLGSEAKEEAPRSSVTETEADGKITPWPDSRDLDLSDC
Assay: Agonist activity at human CB2 receptor expressed in HEK293 cells assessed as inhibition of forskolin-induced cAMP production incubated for 15 mins by cAMP HTRF assay
Format: functional, cell-based
assay.endpoint: EC50 (nM)
Use nM as the unit, but write only the number.

Ask: Dear colleague, I am looking for the recorded EC50 of the following molecule: CC(C)(CO)NC(=O)c1cc(C(C)(C)C)n(-c2ccc(C(F)(F)F)cn2)n1
Result: 10.7

====

Target: Cannabinoid receptor 1 (Homo sapiens)
Assay: Agonist activity at human CB1 receptor expressing CHO cells co-expressing Galpha16 by calcium mobilization assay relative to CP55940
Format: functional, cell-based
Conditions: filed as agonist
assay.endpoint: Emax (%)
Use % as the unit, but write only the number.

CCCCCn1nc(C(=O)NC2CCCCC2)cc1C(C)(C)C ... 50

Ask: Dear colleague, I am looking for the recorded Emax of the following compound: CC(C)(CO)NC(=O)c1cc(C(C)(C)C)n(CCCCCF)n1
Result: 90

Ask: Dear colleague, I am looking for the recorded Emax of the following compound: CCCCCn1nc(C(=O)NC(C)(C)CO)c(Br)c1C(C)(C)C
Result: 50

Ask: Dear colleague, I am looking for the recorded Emax of the following compound: CCCCn1nc(C(=O)NC(C)(C)CO)cc1C(C)(C)C
Result: 90

Ask: Dear colleague, I am looking for the recorded Emax of the following compound: CCCCCn1nc(C(=O)NC23CC4CC(CC(O)(C4)C2)C3)cc1C(C)(C)C
Result: 100

Ask: Dear colleague, I am looking for the recorded Emax of the following compound: CCCCCn1nc(C(=O)N[C@@H](C(=O)OC)C(C)C)cc1C(C)(C)C
Result: 90
